# System: Leishmania major
# test-details: Antileishmanial activity against promastigote stage of Leishmania major MHOM/IL/81/FEBNI infected Swiss albino mouse assessed as inhibition of autoamputation of inoculated footpad at 20 umol administered 21 days post infection measured after 5 weeks relative to untreated mouse
# Assay type: functional, organism-based
The source made the active and inactive calls. The rule behind the calls is not given here.
reported-property: inhibition of footpad autoamputation (active/not active)

| compound | system-name | data-value |
| --- | --- | --- |
| CC(=O)Nc1ccc(NC(=O)C2=C(C)NC(=O)NC2c2ccc(N(C)C)cc2)cc1 (stereo not given) | Leishmania major | Active |
| CC1=C(C(=O)N(CCO)CCO)C(c2cccc([N+](=O)[O-])c2)NC(=S)N1 (stereo not given) | Leishmania major | Active |
| CC1=C(C(=O)NNC(=O)c2ccccc2O)C(c2ccc(N(C)C)cc2)NC(=S)N1 (stereo not given) | Leishmania major | Active |
| CC1=C(C(=O)NNC(=O)c2ccccc2O)C(c2ccc(N(C)C)cc2)NC(=O)N1 (stereo not given) | Leishmania major | inactive |
| COc1cc(C2NC(=S)NC(C)=C2C(=O)NNC(=O)c2ccccc2O)cc(OC)c1OC (stereo not given) | Leishmania major | inactive |
